Source of measurements: patent US20110262497A1

- experiment description: solubility of ezetimibe in water
- Format: physicochemical
measurement type: solubility

Query: Return the recorded solubility value; entry: O=C1[C@H](CC[C@H](O)c2ccc(F)cc2)[C@@H](c2ccc(O)cc2)N1c1ccc(F)cc1
Response: < 10 µg/mL
